# Tested on: Escherichia coli
# assay.name: Induction of Escherichia coli supercoiled plasmid pBR322 DNA cleavage at 0.5 uM to 50 uM after 3 hrs at 37 degC using ethidium bromide by gel electrophoresis
The source made the active and inactive calls. No cut-off for these calls is given here.
Possible outcomes: active, inactive

{"columns": ["molecule", "discrete.label"],
 "data": [
  ["CC1(C)CC(Cl)CN(CCCC[C@@H](C(=O)OCCc2ccccc2)N2CC(Cl)CC(C)(C)C2)C1 (stereo partly specified)", "active"],
  ["CC1(C)CC(Cl)CN(CCCC[C@@H](C(=O)Oc2cccc3ccccc23)N2CC(Cl)CC(C)(C)C2)C1 (stereo partly specified)", "inactive"],
  ["CC1(C)CC(Cl)CN(CCCC[C@@H](C(=O)OCc2ccccc2)N2CC(Cl)CC(C)(C)C2)C1 (stereo partly specified)", "active"],
  ["CC1(C)CC(Cl)CN(CCCC[C@@H](C(=O)OCCCc2ccccc2)N2CC(Cl)CC(C)(C)C2)C1 (stereo partly specified)", "inactive"],
  ["COC(=O)[C@H](CCCCN1CC(Cl)CC(C)(C)C1)N1CC(Cl)CC(C)(C)C1 (stereo partly specified)", "active"],
  ["COc1ccc(OC(=O)[C@H](CCCCN2CC(Cl)CC(C)(C)C2)N2CC(Cl)CC(C)(C)C2)c2ccccc12 (stereo partly specified)", "inactive"]
]}
